Reference for the values: patent US11214614B2

Target under test: huGARP proTGFβ1 (Homo sapiens, UniProt P01137)
Sequence (P01137 30-390): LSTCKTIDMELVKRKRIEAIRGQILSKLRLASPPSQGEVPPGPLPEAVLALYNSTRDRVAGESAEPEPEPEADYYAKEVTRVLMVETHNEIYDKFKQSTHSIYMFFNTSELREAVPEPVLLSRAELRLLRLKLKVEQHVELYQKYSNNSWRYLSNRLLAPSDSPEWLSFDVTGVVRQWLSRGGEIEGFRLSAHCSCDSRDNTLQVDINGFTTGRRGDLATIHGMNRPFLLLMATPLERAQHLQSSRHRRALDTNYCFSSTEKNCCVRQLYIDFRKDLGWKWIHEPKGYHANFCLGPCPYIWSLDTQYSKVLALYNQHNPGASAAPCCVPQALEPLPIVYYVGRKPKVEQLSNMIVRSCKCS
Sequence (Q14392 18-627 partner limits assumed): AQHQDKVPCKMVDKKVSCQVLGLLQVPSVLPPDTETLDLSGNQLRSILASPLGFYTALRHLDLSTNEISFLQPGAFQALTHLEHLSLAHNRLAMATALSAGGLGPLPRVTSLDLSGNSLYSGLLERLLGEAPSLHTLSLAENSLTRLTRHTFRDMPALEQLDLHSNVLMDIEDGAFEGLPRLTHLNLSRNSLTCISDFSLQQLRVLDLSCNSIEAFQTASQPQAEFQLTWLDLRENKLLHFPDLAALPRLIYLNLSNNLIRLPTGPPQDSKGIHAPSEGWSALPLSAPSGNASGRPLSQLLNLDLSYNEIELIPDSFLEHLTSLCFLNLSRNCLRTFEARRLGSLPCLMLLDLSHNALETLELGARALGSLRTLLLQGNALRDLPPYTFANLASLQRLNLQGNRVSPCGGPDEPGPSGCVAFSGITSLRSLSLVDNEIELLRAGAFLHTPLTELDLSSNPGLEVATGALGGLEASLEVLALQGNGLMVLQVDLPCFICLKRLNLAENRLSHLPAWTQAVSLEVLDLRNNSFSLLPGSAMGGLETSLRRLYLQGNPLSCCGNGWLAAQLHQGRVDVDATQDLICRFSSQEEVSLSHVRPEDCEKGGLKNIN
Protocol notes: Octet (BLI) binding, IgG captured on AHC tips, antigen at 100 nM
Protocol conditions: Table 10; same assay conditions as Table 9; N.B. = non-binder under conditions of this assay
Endpoint: ForteBio IgG KD Hu GARP-proTGFβ1 in solution (M) Avid

- Molecule: "SR-AB63: cycle 3 antibody, lineage SR-AB26; CDRs SEQ ID NO: 292-297; HCVR SEQ ID NO: 360, LCVR SEQ ID NO: 361 (antibody, V domains shown) VH: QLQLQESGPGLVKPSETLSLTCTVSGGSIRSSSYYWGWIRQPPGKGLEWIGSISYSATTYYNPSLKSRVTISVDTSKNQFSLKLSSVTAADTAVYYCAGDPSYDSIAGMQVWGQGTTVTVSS VL: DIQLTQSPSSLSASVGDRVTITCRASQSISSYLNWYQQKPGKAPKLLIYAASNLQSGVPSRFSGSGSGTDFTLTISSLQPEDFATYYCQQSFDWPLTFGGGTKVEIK"
  Value measured: "N.B."
- Molecule: "SR-AB40: cycle 3 light chain-optimized antibody, lineage SR-AB23; CDRs SEQ ID NO: 154-159 (antibody, V domains shown) VH: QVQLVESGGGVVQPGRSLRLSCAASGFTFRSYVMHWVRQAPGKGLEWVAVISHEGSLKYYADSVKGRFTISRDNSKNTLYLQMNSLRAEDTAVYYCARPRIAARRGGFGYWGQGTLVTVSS VL: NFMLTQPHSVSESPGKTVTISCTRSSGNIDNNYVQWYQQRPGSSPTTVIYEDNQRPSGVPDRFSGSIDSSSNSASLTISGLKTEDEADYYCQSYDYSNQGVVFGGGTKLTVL"
  Value measured: "N.B."
- Molecule: "SR-AB43: cycle 3 light chain-optimized antibody, lineage SR-AB23; CDRs SEQ ID NO: 172-177 (antibody, V domains shown) VH: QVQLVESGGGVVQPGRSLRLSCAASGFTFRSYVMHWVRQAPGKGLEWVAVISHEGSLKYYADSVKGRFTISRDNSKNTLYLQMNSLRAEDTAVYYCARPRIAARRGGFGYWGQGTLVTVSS VL: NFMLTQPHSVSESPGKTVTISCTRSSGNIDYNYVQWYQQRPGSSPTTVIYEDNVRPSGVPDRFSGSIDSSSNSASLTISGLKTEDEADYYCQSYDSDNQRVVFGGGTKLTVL"
  Value measured: "N.B."
- Molecule: "SR-AB64: cycle 3 light chain-optimized antibody, lineage SR-AB26; CDRs SEQ ID NO: 298-303 (antibody, V domains shown) VH: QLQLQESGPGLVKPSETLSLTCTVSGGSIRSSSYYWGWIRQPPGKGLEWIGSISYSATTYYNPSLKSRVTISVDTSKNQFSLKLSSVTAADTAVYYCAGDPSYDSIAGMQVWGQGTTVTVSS VL: DIQMTQSPSSLSASVGDRVTITCRASQSISYYLNWYQQKPGKAPKLLIYSASSRQSGVPSRFSGSGSGTDFTLTISSLQPEDFATYYCQQGFDFPLTFGGGTKVEIK"
  Value measured: "N.B."
- Molecule: "SR-AB42: cycle 3 antibody, lineage SR-AB23; CDRs SEQ ID NO: 166-171; HCVR SEQ ID NO: 318, LCVR SEQ ID NO: 319 (antibody, V domains shown) VH: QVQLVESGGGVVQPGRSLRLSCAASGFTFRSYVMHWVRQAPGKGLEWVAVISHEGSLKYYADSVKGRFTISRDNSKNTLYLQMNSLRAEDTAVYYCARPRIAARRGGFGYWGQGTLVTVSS VL: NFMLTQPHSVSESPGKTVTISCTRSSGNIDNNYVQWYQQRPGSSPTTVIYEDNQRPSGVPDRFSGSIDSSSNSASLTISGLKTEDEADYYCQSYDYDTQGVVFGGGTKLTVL"
  Value measured: "N.B."
- Molecule: "SR-AB62: cycle 3 light chain-optimized antibody, lineage SR-AB24; CDRs SEQ ID NO: 286-291 (antibody, V domains shown) VH: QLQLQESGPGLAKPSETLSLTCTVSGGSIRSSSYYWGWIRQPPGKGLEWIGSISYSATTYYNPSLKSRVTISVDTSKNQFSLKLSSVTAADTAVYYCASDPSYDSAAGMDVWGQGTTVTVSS VL: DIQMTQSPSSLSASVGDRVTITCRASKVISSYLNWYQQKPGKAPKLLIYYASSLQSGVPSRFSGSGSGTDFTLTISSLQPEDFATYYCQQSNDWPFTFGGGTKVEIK"
  Value measured: "N.B."
